system: Ba/F3-EGFR-insSVD; assay: Ba/F3 cell survival assay, EGFR-insSVD; format: cell-based; conditions: Mus musculus, BaF3, 48 h, read-out: BA/F3 (insSVD) IC50, cell viability, Cell Titer-Glo, 48 h, with 10 ng/mL EGF, without IL-3
Task for the reader: assign each of the following compounds its reported log10 of IC50.
# values: log10(IC50), units nM

COMPOUND	EXPERIMENTAL RESULT
COc1c(Cl)cc(F)cc1Nc1c(-c2ccncc2OCC2CCO2)[nH]c2c1C(=O)NCC2 (racemic)	1.95
COc1c(F)cccc1Nc1c(-c2ccncc2OCC2CCO2)[nH]c2c1C(=O)NCC2 (racemic)	1.77
COc1c(Br)cccc1Nc1c(-c2ccncc2OCC2CCO2)[nH]c2c1C(=O)NCC2 (racemic)	1.52
CC1(C)COC1COc1cnccc1-c1[nH]c2c(c1Nc1cccc(Cl)c1OC(F)F)C(=O)NCC2 (racemic)	2.09
COc1c(F)cccc1Nc1c(-c2ccncc2OCCC2CCO2)[nH]c2c1C(=O)NCC2 (racemic) [Example 43]	1.06

// each listed compound needs a value for log10 of IC50
1. Cc1c(Cl)cccc1Nc1c(-c2ccncc2OC[C@H]2CCO2)[nH]c2c1C(=O)NCC2
2. Cc1c(Cl)cccc1Nc1c(-c2ccncc2OCC2(C)CCO2)[nH]c2c1C(=O)NCC2 (single isomer, unassigned; (-)) [Example 81]

[2.43, 1.98]

* * *

Task for the reader: assign each of the following compounds its reported IC50.
test system: Ba/F3-EGFR-N771_P772insH; test: Ba/F3 cell survival assay, EGFR N771_P772insH; assay type: cell-based; settings: 48 h, read-out: BA/F3 (EGFR N771— P772insH) IC50
Give bare numbers, in nM.

# annotated cases, reported IC50 shown
COMPOUND	TESTED SYSTEM	UNITS TEXT	IC50
COc1c(Cl)cccc1Nc1c(-c2ccncc2OC[C@@H]2CCO2)[nH]c2c1C(=O)NCC2	Ba/F3-EGFR-N771_P772insH	nM	5.59
COc1c(Cl)cccc1Nc1c(-c2ccncc2OCC2(C)CCO2)[nH]c2c1C(=O)NCC2 (single isomer, unassigned; (+))	Ba/F3-EGFR-N771_P772insH	nM	5.13
COc1c(Cl)cccc1Nc1c(-c2ccncc2OCC2OCC2(C)C)[nH]c2c1C(=O)NCC2 (single isomer, unassigned; (+))	Ba/F3-EGFR-N771_P772insH	nM	7.64

Turning now to a further compound:
Consider the compound shown here: COc1c(Cl)cccc1Nc1c(-c2ccncc2OCCC2CCO2)[nH]c2c1C(=O)NCC2 (single isomer, unassigned; (-)) What is its recorded IC50?
3.7

* * *

tested on: Ba/F3-EGFR-insSVD; experiment: Ba/F3 cell survival assay, EGFR-insSVD; type: cell-based; settings: read-out: BA/F3 (insSVD) IC50; cell viability, Cell Titer-Glo, 48 h, with 10 ng/mL EGF, without IL-3
pIC50: −log10 of the molar value.
Returns: string. Value is Satisfied if measured pIC50 is below 7, and Not satisfied if it is greater than or equal to it.

Look over these answered cases.
COMPOUND	ANSWER LABEL
Cc1cccc(Nc2c(-c3ccncc3OCC3(C)CCO3)[nH]c3c2C(=O)NCC3)c1Cl (single isomer, unassigned; (+)) [Example 56]	Not satisfied
CC1(C)COC1COc1cnccc1-c1[nH]c2c(c1Nc1cccc(Cl)c1OC(F)F)C(=O)NCC2 (single isomer, unassigned) [Example 72]	Satisfied
COc1c(F)cccc1Nc1c(-c2ccncc2OCC2OCC2(C)C)[nH]c2c1C(=O)NCC2 (single isomer, unassigned; (+)) [Example 54]	Not satisfied
CC1(COc2cnccc2-c2[nH]c3c(c2Nc2cccc(Cl)c2OC(F)F)C(=O)NCC3)CCO1 (single isomer, unassigned) [Example 76]	Satisfied

Here is the next item to consider.
Item COc1c(Cl)cc(F)cc1Nc1c(-c2ccncc2OCC2(C)CCO2)[nH]c2c1C(=O)NCC2 (single isomer, unassigned) [Example 69] : pIC50 beneath 7, strictly?
Satisfied

* * *

Task for the reader: assign each of the following compounds its reported IC50.
system: Ba/F3-EGFR-insSVD; test: Ba/F3 cell survival assay, EGFR-insSVD; assay type: cell-based; conditions: read-out: BA/F3 (insSVD) IC50; cell viability, Cell Titer-Glo, 48 h, with 10 ng/mL EGF, without IL-3
Give bare numbers, in nM.

// each listed compound needs a value for IC50
1. Cc1cccc(Nc2c(-c3ccncc3OCC3(C)CCO3)[nH]c3c2C(=O)NCC3)c1Cl (single isomer, unassigned; (-)) [Example 57]
2. Cc1c(F)cccc1Nc1c(-c2ccncc2OCC2(C)CCO2)[nH]c2c1C(=O)NCC2 (single isomer, unassigned; (-)) [Example 84]
3. COc1c(Cl)cccc1Nc1c(-c2ccncc2OCC2(C)CCO2)[nH]c2c1C(=O)NCC2 (single isomer, unassigned; (+)) [Example 48]

[402, 306, 9.65]

* * *

System: Ba/F3-EGFR-insSVD
Experiment: Ba/F3 cell survival assay, EGFR-insSVD
Format: cell-based
Settings: read-out: BA/F3 (insSVD) IC50; cell viability, Cell Titer-Glo, 48 h, with 10 ng/mL EGF, without IL-3
Protocol: 293T cells from ATCC were transfected with pBABEpuro expression constructs for WT EGFR or EGFR-insSVD and pCL-Eco packaging vector using Fugene-6 transfection reagent from Promega. Plates were incubated at 37° C. for 48 h. […] Cell viability was measured by adding 20 μL of Cell Titer-Glo Luminescent Cell Viability Reagent diluted 1:3 in PBS. […] Plates were incubated in low light conditions for 8-10 min and luminescence was measured.
METRIC NAME: pIC50
Numbers only, as −log10 of the molar value.

# annotated cases, reported pIC50 shown
MOLECULE	TESTED SYSTEM	pIC50
O=C1NCCc2[nH]c(-c3ccncc3OCCC3CCO3)c(Nc3cccc(Cl)c3Cl)c21 (single isomer, unassigned)	Ba/F3-EGFR-insSVD	7.64
COc1c(Nc2c(-c3ccncc3OCC3CCO3)[nH]c3c2C(=O)NCC3)ccc(F)c1Cl (single isomer, unassigned; (-)) [Example 14]	Ba/F3-EGFR-insSVD	6.36
Cc1cccc(Nc2c(-c3ccncc3OCC3CCO3)[nH]c3c2C(=O)NCC3)c1Cl (single isomer, unassigned; (-)) [Example 39]	Ba/F3-EGFR-insSVD	6.33
COc1c(Cl)cccc1Nc1c(-c2ccncc2OCCC2CCO2)[nH]c2c1C(=O)NCC2 (single isomer, unassigned; (-))	Ba/F3-EGFR-insSVD	8.14
COc1c(Cl)cc(F)cc1Nc1c(-c2ccncc2OCC2CCO2)[nH]c2c1C(=O)NCC2 (single isomer, unassigned)	Ba/F3-EGFR-insSVD	6.85

Turning now to a further molecule:
Consider the molecule shown here: Cc1cccc(Nc2c(-c3ccncc3OCC3CCO3)[nH]c3c2C(=O)NCC3)c1Cl (single isomer, unassigned; (+)) [Example 38] What is its recorded pIC50?
7.31

* * *

system: Ba/F3-EGFR-V769_D770insASV; test: Ba/F3 cell survival assay, EGFR V769_D770insASV; type: cell-based; conditions: 48 h, read-out: BA/F3 (ASV) IC50
METRIC NAME: IC50 (µM)
Numbers only, in µM.

# annotated cases, reported IC50 shown
MOLECULE	IC50, µM
COc1c(Cl)cccc1Nc1c(-c2ccncc2OCC2OCC2(C)C)[nH]c2c1C(=O)NCC2 (single isomer, unassigned; (+)) [Example 50]	0.0164
COc1c(Cl)cccc1Nc1c(-c2ccncc2OCC2(C)CCO2)[nH]c2c1C(=O)NCC2 (single isomer, unassigned; (+)) [Example 48]	0.0114
COc1c(Cl)cccc1Nc1c(-c2ccncc2OC[C@@H]2CCO2)[nH]c2c1C(=O)NCC2 [Example 2]	0.00973

Turning now to a further molecule:
Consider the molecule shown here: COc1c(Cl)cccc1Nc1c(-c2ccncc2OCCC2CCO2)[nH]c2c1C(=O)NCC2 (single isomer, unassigned; (-)) [Example 26] What is its recorded IC50?
0.00936

* * *

test system: Ba/F3-EGFR-insSVD; test: Ba/F3 cell survival assay, EGFR-insSVD; type: cell-based; conditions: Mus musculus, BaF3, 48 h, read-out: BA/F3 (insSVD) IC50, cell viability, Cell Titer-Glo, 48 h, with 10 ng/mL EGF, without IL-3
Task for the reader: assign each of the following compounds its reported IC50.
Answers are plain numbers, in nM.

COMPOUND	TESTED SYSTEM	METRIC NAME	EXPERIMENTAL RESULT
CCC1(COc2cnccc2-c2[nH]c3c(c2Nc2cccc(Cl)c2OC)C(=O)NCC3)COC1	Ba/F3-EGFR-insSVD	IC50	57.2
Cc1cccc(Nc2c(-c3ccncc3OCCC3CCO3)[nH]c3c2C(=O)NCC3)c1Cl (stereo not drawn)	Ba/F3-EGFR-insSVD	IC50	42.1
O=C1NCCc2[nH]c(-c3ccncc3OCC3CCO3)c(Nc3cccc(Cl)c3Cl)c21 (single isomer, unassigned; (+)) [Example 11]	Ba/F3-EGFR-insSVD	IC50	147

// each listed compound needs a value for IC50
1. CCN1CC[C@H]1COc1cnccc1-c1[nH]c2c(c1Nc1cccc(Cl)c1OC)C(=O)NCC2
2. Cc1cccc(Nc2c(-c3ccncc3OCC3CCO3)[nH]c3c2C(=O)NCC3)c1Cl (racemic)
3. O=C1NCCc2[nH]c(-c3ccncc3OCC3COC3)c(Nc3cccc(Cl)c3OC(F)F)c21
4. CC1(COc2cnccc2-c2[nH]c3c(c2Nc2cccc(Cl)c2OC(F)F)C(=O)NCC3)CCO1 (single isomer, unassigned) [Example 75]
5. Cc1cccc(Nc2c(-c3ccncc3OCC3(C)CCO3)[nH]c3c2C(=O)NCC3)c1Cl (racemic)
6. Cc1c(Cl)cccc1Nc1c(-c2ccncc2OC[C@@H]2CCO2)[nH]c2c1C(=O)NCC2
7. O=C1NCCc2[nH]c(-c3ccncc3OCCC3CCO3)c(Nc3cccc(Cl)c3Cl)c21 (single isomer, unassigned)

1. 181
2. 105
3. 177
4. 305
5. 67.3
6. 12.5
7. 31.4

// each listed compound needs a value for IC50
1. O=C1NCCc2[nH]c(-c3ccncc3OCC3CCO3)c(Nc3cccc4c3CCC4)c21 (stereo not drawn)
2. COc1c(F)cccc1Nc1c(-c2ccncc2OC[C@H]2CCO2)[nH]c2c1C(=O)NCC2

377
276

// each listed compound needs a value for IC50
1. CC1(COc2cnccc2-c2[nH]c3c(c2Nc2cccc(Cl)c2OC(F)F)C(=O)NCC3)CCO1 (racemic) [Example 74]
2. COc1c(Cl)cccc1Nc1c(-c2ccncc2OCC2(C)CCN2CC(F)(F)F)[nH]c2c1C(=O)NCC2 (stereo not drawn)
3. Cc1c(Cl)cccc1Nc1c(-c2ccncc2OC[C@]2(C)CCO2)[nH]c2c1C(=O)NCC2 (single isomer, unassigned)

134
12.2
34.8

This collection of values is drawn from patent US20240307362A1.
